Give koff for every item shown.
- tested system: T1, extracellular domain of human BCMA (human, UniProt Q02223 1-54)
- T1 construct: amine-linked to Octet AR2G tips; also called hsBCMA; BCMA (human)
- T1 sequence: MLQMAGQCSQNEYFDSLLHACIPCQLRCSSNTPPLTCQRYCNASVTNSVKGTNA
- assay text: Octet BLI; Fab 200 nM
Give bare numbers, in s⁻¹.

binder="AB200_Fab + D99Q (Fab, name in Kabat numbering, V domains shown) VH: QVQLVQSGAEVKKPGSSVKVSCKASGGTFSNYWMHWVRQAPGQGLEWMGATYRGHSDTYYNQKFKGRVTITADKSTSTAYMELSSLRSEDTAVYYCARGAIYQGYDVLDNWGQGTLVTVSS VL: DIQMTQSPSSLSASVGDRVTITCSASQDISNYLNWYQQKPGKAPKLLIYYTSNLHSGVPSRFSGSGSGTDFTLTISSLQPEDFATYYCQQYRKLPWTFGQGTKLEIKR" reported_result=0.00053

Alright, here's another binder for you.
Ask: Provide koff value for the following binder: AB200_Fab (D99D) (Fab, V domains shown) VH: QVQLVQSGAEVKKPGSSVKVSCKASGGTFSNYWMHWVRQAPGQGLEWMGATYRGHSDTYYNQKFKGRVTITADKSTSTAYMELSSLRSEDTAVYYCARGAIYDGYDVLDNWGQGTLVTVSS VL: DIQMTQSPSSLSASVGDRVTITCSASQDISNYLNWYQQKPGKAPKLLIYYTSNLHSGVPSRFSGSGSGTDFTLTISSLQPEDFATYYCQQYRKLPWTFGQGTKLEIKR
Reply: 0.00058

meta.source: patent US20240327535A1
